test_description: chemical genetic growth profiling, strain panel (AID 1159580);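 also: tested at 20 µM; growth read once vehicle control cultures reached saturation at 30 °C; lower values mean less growth of the strain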
study_conditions: S. cerevisiae deletion strains, growth OD, locus YAL030W, strain snc1
Among all 5,500 compounds or so, about 2,000 (36%) were called active. Not shown: some 18% with an inconclusive outcome. Rule as the data show it: active = normalized growth mostly below about 0.91 (no sharp cut-off); inconclusive = no clear call, values can overlap the other calls; inactive = mostly above about 0.92. The list shows a part of the results.
Respond using exactly one of the listed classes: active, inactive

{"structure_smiles_string": "O=C(OC[C@H]1O[C@H](OC(=O)c2cc(O)c(O)c(OC(=O)c3cc(O)c(O)c(O)c3)c2)[C@H](OC(=O)c2cc(O)c(O)c(OC(=O)c3cc(O)c(O)c(O)c3)c2)[C@@H](OC(=O)c2cc(O)c(O)c(OC(=O)c3cc(O)c(O)c(O)c3)c2)[C@@H]1OC(=O)c1cc(O)c(O)c(OC(=O)c2cc(O)c(O)c(O)c2)c1)c1cc(O)c(O)c(OC(=O)c2cc(O)c(O)c(O)c2)c1", "assigned_category": "active"}

Field: next molecule
Prompt: Outcome logged for CN1CCN(CC(=O)N2c3ccccc3C(=O)Nc3cccnc32)CC1 in this assay:
Completion: inactive
